Each entry below carries its reported Ki.
Target: human adenosine A2A receptor (Homo sapiens)
Construct: expressed in transfected cells; host or cells: CHO cells, semliki forest virus expression system; membrane preparation
Sequence (P29274 whole entry): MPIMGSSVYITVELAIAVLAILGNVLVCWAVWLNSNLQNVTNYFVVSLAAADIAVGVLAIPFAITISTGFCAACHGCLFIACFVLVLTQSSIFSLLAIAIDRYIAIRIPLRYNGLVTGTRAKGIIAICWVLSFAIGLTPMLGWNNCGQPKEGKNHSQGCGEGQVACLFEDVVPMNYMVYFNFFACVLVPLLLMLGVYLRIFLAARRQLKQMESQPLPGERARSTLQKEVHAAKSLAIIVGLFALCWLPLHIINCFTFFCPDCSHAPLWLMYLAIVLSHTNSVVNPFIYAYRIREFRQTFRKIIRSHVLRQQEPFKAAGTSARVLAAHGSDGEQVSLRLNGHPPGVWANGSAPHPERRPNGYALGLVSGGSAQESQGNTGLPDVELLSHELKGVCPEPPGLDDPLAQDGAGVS
Experiment: Human adenosine A2A receptor [3H]-SCH-58261 binding assay
Details: human A2a receptor, membranes of CHO cells, [3H]-SCH-58261; read-out: pKi (affinity to the human A2a receptor) (converted)
Write the number in nM without appending the unit.

Example entries begin here.
Cc1ccc(CNc2cc(N)nc(-c3ccco3)c2C#N)nc1 ... 7.76
Cc1ccc(-c2nc(N)nc(NCc3ccccc3)c2C#N)o1 ... 5.5
Cc1cnc(COc2nc(N)nc(-c3ccco3)c2C#N)c(C)c1 ... 0.692
N#CCc1ccc(-c2nc(N)nc(SCCc3ccccn3)c2C#N)o1 ... 5.75
Cc1ccc(-c2nc(N)nc(OCc3ccccn3)c2C#N)o1 ... 2.14
Cc1ccc(COc2nc(N)nc(-c3cc(Br)co3)c2C#N)nc1 ... 5.62
N#Cc1c(SCCc2ccccn2)nc(N)nc1-c1ccc(C(F)F)o1 ... 1.95
COc1cccc(CNc2nc(N)nc(-c3ccco3)c2C#N)c1 ... 3.31

GET /values?item= N#Cc1c(SCCc2ccccn2)nc(N)nc1-c1cc(Br)co1 &system= human adenosine A2A receptor (Homo sapiens) returns Ki: 1.17

For Cc1cccnc1COc1nc(N)nc(-c2cc(Br)co2)c1C#N on human adenosine A2A receptor (Homo sapiens), measured Ki was 0.955

The reported Ki value, human adenosine A2A receptor (Homo sapiens), for CSc1nc(N)nc(-c2ccc3c(c2)OCCO3)c1C#N reads 9.12

----------
Biological target: human adenosine A2A receptor (Homo sapiens)
Construct: expressed in transfected cells; host or cells: CHO cells, semliki forest virus expression system; membrane preparation
Assay: Human adenosine A2A receptor [3H]-SCH-58261 binding assay
Details: human A2a receptor, membranes of CHO cells, [3H]-SCH-58261; read-out: pKi (affinity to the human A2a receptor) (converted)
Note to self: Ki under 9 nM means true, ties and anything higher get false.

Solved entries:
CC(C)Oc1nc(N)nc(-c2ccco2)c1C#N ... true
N#Cc1c(NCCc2ccc(O)cc2)nc(N)nc1-c1ccco1 ... true
Nc1nc(OCCc2ccccc2)c(Cl)c(-c2ccco2)n1 ... false
N#Cc1c(NCCCc2ccccc2)nc(N)nc1-c1ccco1 ... true
N#Cc1nc(N)nc(-c2ccco2)c1C#N ... false
Nc1nc(OCc2ccccc2)c([N+](=O)[O-])c(-c2ccco2)n1 ... false
N#Cc1c(OCCCc2ccccc2)nc(N)nc1-c1ccco1 ... true
COc1ccc(CCNc2nc(N)nc(-c3ccco3)c2C#N)cc1 ... true

Consider the record given below.
# check: Ki < 9 nM for COc1ccccc1CNc1nc(N)nc(-c2ccco2)c1C#N true

----------
Target: human adenosine A1 receptor (Homo sapiens)
Construct: expressed in transfected cells; host or cells: CHO cells, semliki forest virus expression system; membrane preparation
Sequence (P30542 1-326): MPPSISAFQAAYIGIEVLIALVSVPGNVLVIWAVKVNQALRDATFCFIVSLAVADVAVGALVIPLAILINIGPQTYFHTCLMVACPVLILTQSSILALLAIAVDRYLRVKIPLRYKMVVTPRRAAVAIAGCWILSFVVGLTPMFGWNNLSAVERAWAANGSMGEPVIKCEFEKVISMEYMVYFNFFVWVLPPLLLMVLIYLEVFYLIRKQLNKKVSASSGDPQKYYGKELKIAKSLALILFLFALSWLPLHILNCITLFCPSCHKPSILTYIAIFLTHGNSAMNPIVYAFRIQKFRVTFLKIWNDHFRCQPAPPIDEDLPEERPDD
Assay: Human adenosine A1 receptor [3H]-DPCPX binding assay
Settings: membranes of CHO cells, read-out: hA1 (pKi) (converted)
The label is Criterion met for Ki below 0.4 µM and Criterion not met for Ki equal to or exceeding 0.4 µM.

Illustrative cases are given below, each with its answer.
N#Cc1c(OCc2ccc3ccccc3c2)nc(N)nc1-c1ccco1 ... Criterion met
N#Cc1c(NCc2ccc(Br)cc2)nc(N)nc1-c1ccco1 ... Criterion not met
N#Cc1c(NCCNc2ccc(Cl)cc2)nc(N)nc1-c1ccco1 ... Criterion not met

Consider the compound CCc1ccc(CNc2nc(N)nc(-c3ccco3)c2C#N)cc1 . Is its Ki strictly less than 0.4 µM? Criterion not met

In plain terms, does Cc1ccccc1CNc1nc(N)nc(-c2ccco2)c1C#N come in under 0.4 µM for Ki? Criterion met

// provenance: patent US6586441B2
